SYSTEM_UNDER_TEST: human β3 adrenergic receptor (Homo sapiens)
Construct: expressed in transfected cells; host or cells: Chinese hamster ovary (CHO) cells, stably transfected
TEST_DETAILS: Beta-3 agonist in vitro functional assay: cAMP production (LANCE TR-FRET) in CHO cells stably transfected with the cloned β3 receptor
Assay type: cell-based
RUN_CONDITIONS: Table 8; Beta-3 agonist in vitro functional assay; read-out: Human β3 agonist functional activity
pEC50: −log10 of the molar value.
What pEC50 was measured for each of the following?

For O=C(c1ccc(C[C@@H]2CC[C@H]([C@H](O)c3ccccc3)N2)cc1)N1CCC2(CC1)OCC[S+]2[O-] (stereo partly shown) [Example 304] the compound record lists pEC50 as 6.00 to 7.00

Lab note: COc1ccc2c(c1)C(=O)CC1(CCN(C(=O)c3ccc(C[C@@H]4CC[C@H]([C@H](O)c5cccnc5)N4)cc3)CC1)S2 [Example 329] gave pEC50 of 7.00 to 8.00

Data point: O=C(c1ccc(C[C@@H]2CC[C@H]([C@H](O)c3ccccc3)N2)cc1)N1CCC(O)(Cc2ccccc2)CC1 [Example 245] ; pEC50 = 7.00 to 8.00

// sample CC1(C)CC2(CCN(C(=O)c3ccc(C[C@@H]4CC[C@H]([C@H](O)c5cccnc5)N4)cc3)CC2)C(=O)O1 [Example 294] , its pEC50 was 8.00 to 9.00

Looking up O=C1NC(=O)C2(CCN(C(=O)c3ccc(C[C@@H]4CC[C@H]([C@H](O)c5cccnc5)N4)cc3)CC2)N1 [Example 268] , I found its pEC50 recorded as 7.00 to 8.00

Field pEC50 (entry O=C(c1ccc(C[C@@H]2CC[C@H]([C@H](O)c3ccccc3)N2)cc1)N1CCC2(CC1)OCCS2(=O)=O [Example 303] ) reads 7.00 to 8.00

Entry CC1C(=O)c2cc(S(C)(=O)=O)ccc2OC12CCN(C(=O)c1ccc(C[C@@H]3CC[C@H]([C@H](O)c4ccccc4)N3)cc1)CC2 (stereo partly shown) [Example 335] — recorded pEC50 = 7.00 to 8.00

GET /value?item= O=C(c1ccc(C[C@@H]2CC[C@H]([C@H](O)c3ccccc3)N2)cc1)N1CCC2(CC1)NC(=O)N(Cc1ccccc1)C2=O [Example 269] &field=pEC50 returns 7.00 to 8.00

Looking up O=C(c1ccc(C[C@@H]2CC[C@H]([C@H](O)c3ccccc3)N2)cc1)N1CCC2(CC1)OC(C1CC1)c1ccccc12 (stereo partly shown) [Example 308] , I see its pEC50 listed as 7.00 to 8.00

O=C1OC2(CCN(C(=O)c3ccc(C[C@@H]4CC[C@H]([C@H](O)c5ccccc5)N4)cc3)CC2)Cc2ccccc21 [Example 333] yielded pEC50 of 8.00 to 9.00

Lookup result for O=C1CC2(CCN(C(=O)c3ccc(C[C@@H]4CC[C@H]([C@H](O)c5ccccc5)N4)cc3)CC2)Sc2ccccc21 [Example 326] ; measured pEC50: 8.00 to 9.00

Looking up O=C(c1ccc(C[C@@H]2CC[C@H]([C@H](O)c3cccnc3)N2)cc1)N1CCC2(CC1)C(=O)NCN2c1ccccc1 [Example 259] , I found its pEC50 recorded as 8.00 to 9.00

// O=C(c1ccc(C[C@@H]2CC[C@H]([C@H](O)c3ccccc3)N2)cc1)N1CCC2(CCc3cn[nH]c32)CC1 [Example 321] : pEC50 value = 6.00 to 7.00

----------
SYSTEM_UNDER_TEST: human β3 adrenergic receptor (Homo sapiens)
Construct: expressed in transfected cells; host or cells: Chinese hamster ovary (CHO) cells, stably transfected
TEST_DETAILS: Beta-3 agonist in vitro functional assay: cAMP production (LANCE TR-FRET) in CHO cells stably transfected with the cloned β3 receptor
Type: cell-based
RUN_CONDITIONS: Table 8; Beta-3 agonist in vitro functional assay; read-out: Human β3 agonist functional activity
pEC50: −log10 of the molar value.
PROPERTY_NAME: pEC50

Given item `O=C(c1ccc(C[C@@H]2CC[C@H]([C@H](O)c3ccccc3)N2)cc1)N1CCC2(CC1)c1ccccc1CS2(=O)=O` , the value recorded as its pEC50 is 7.00 to 8.00

Entry O=C(c1ccc(C[C@@H]2CC[C@H]([C@H](O)c3ccccc3)N2)cc1)N1CCC2(CC1)C(=O)NCC2c1ccccn1 (stereo partly drawn) — recorded pEC50 = 8.00 to 9.00

Entry under test: `Cc1nnc(C2(C3CCCCC3)CCN(C(=O)c3ccc(C[C@@H]4CC[C@H]([C@H](O)c5ccccc5)N4)cc3)CC2)o1` . Its pEC50 was 6.00 to 7.00

----------
SYSTEM_UNDER_TEST: human β3 adrenergic receptor (Homo sapiens, UniProt P13945)
Construct: expressed in transfected cells; host or cells: Chinese hamster ovary (CHO) cells, stably transfected
Sequence (P13945 whole entry): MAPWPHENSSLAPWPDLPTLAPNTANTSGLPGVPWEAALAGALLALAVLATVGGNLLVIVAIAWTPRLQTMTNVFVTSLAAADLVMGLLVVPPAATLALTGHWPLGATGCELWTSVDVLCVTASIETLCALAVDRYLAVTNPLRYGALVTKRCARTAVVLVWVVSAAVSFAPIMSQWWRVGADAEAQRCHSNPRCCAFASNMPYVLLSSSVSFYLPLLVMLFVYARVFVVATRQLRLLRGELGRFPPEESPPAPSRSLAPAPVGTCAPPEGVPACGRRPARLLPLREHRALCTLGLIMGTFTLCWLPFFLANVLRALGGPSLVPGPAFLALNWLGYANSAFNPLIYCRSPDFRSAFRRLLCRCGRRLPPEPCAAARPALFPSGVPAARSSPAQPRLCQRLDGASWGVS
TEST_DETAILS: Beta-3 agonist in vitro functional assay: cAMP production (LANCE TR-FRET) in CHO cells stably transfected with the cloned β3 receptor
Assay type: cell-based
RUN_CONDITIONS: Table 8; Beta-3 agonist in vitro functional assay; read-out: Human β3 agonist functional activity
pEC50: −log10 of the molar value.
PROPERTY_NAME: pEC50

For reference, reported pEC50 for O=C1CC(c2ccccc2)C2(CCN(C(=O)c3ccc(C[C@@H]4CC[C@H]([C@H](O)c5ccccc5)N4)cc3)CC2)O1 (stereo partly shown) stands at 8.00 to 9.00

So, `COc1ccc2c(c1)C(=O)CC1(CCN(C(=O)c3ccc(C[C@@H]4CC[C@H]([C@H](O)c5ccccc5)N4)cc3)CC1)S2(=O)=O` ? Its pEC50 was 8.00 to 9.00

Query `O=C1NC2(CCN(C(=O)c3ccc(C[C@@H]4CC[C@H]([C@H](O)c5ccccc5)N4)cc3)CC2)Oc2ccccc21` yields pEC50 of 7.00 to 8.00

Given item `O=C(c1ccc(C[C@@H]2CC[C@H]([C@H](O)c3ccccc3)N2)cc1)N1CCC2(CC1)CCN(c1ccccc1)C2=O` , the value recorded as its pEC50 is 6.00 to 7.00

The molecule `O=C1NC2(CCN(C(=O)c3ccc(C[C@@H]4CC[C@H]([C@H](O)c5ccccc5)N4)cc3)CC2)CO1` showed pEC50 equal to 6.00 to 7.00

Record summary for CC1(C)OCC2(CCN(C(=O)c3ccc(C[C@@H]4CC[C@H]([C@H](O)c5ccccc5)N4)cc3)CC2)C1O (stereo partly shown) : reported pEC50 = 6.00 to 7.00

molecule `O=C(c1ccc(C[C@@H]2CC[C@H]([C@H](O)c3ccccc3)N2)cc1)N1CCC2(CC1)C(=O)NCN2c1ccccc1` , pEC50 observed: > 9.00

get_value(item= `COc1ccc2c(c1)C(=O)CC1(CCN(C(=O)c3ccc(C[C@@H]4CC[C@H]([C@H](O)c5ccccc5)N4)cc3)CC1)S2` , readout=pEC50) returns 8.00 to 9.00

Query `COc1cccc2c1C1(CCN(C(=O)c3ccc(C[C@@H]4CC[C@H]([C@H](O)c5cccnc5)N4)cc3)CC1)OC(=O)N2` yields pEC50 of 7.00 to 8.00

// pEC50 value for `CN1CCC2(CCN(C(=O)c3ccc(C[C@@H]4CC[C@H]([C@H](O)c5ccccc5)N4)cc3)CC2)C1=O` : 6.00 to 7.00

// `O=C1NCC2(CCN(C(=O)c3ccc(C[C@@H]4CC[C@H]([C@H](O)c5ccccc5)N4)cc3)CC2)O1` : pEC50 value = 6.00 to 7.00

GET /value?item= `CC(C)COc1ccc2c(c1)C(=O)CC1(CCN(C(=O)c3ccc(C[C@@H]4CC[C@H]([C@H](O)c5ccccc5)N4)cc3)CC1)O2` &field=pEC50 returns 7.00 to 8.00

Lookup result for `O=C1Nc2ncccc2C2(CCN(C(=O)c3ccc(C[C@@H]4CC[C@H]([C@H](O)c5ccccc5)N4)cc3)CC2)O1` ; measured pEC50: 7.00 to 8.00

----------
Assign EC50 to each entry below.
SYSTEM_UNDER_TEST: human β3 adrenergic receptor (Homo sapiens, UniProt P13945)
Construct: expressed in transfected cells; host or cells: Chinese hamster ovary (CHO) cells, stably transfected
TEST_DETAILS: Beta-3 agonist in vitro functional assay: cAMP production (LANCE TR-FRET) in CHO cells stably transfected with the cloned β3 receptor
Format: cell-based
RUN_CONDITIONS: Table 10; Beta-3 agonist in vitro functional assay; read-out: Human β3 agonist functional activity

Looking up CC(C(=O)NCC1(C)CCC1)N1CCN(C(=O)c2ccc(C[C@@H]3CC[C@H]([C@H](O)c4ccccc4)N3)cc2)CC1 (some centres unmarked) [Example 453] , I see its EC50 listed as 1 to 9.9 nM

The recorded EC50 for CC(C(=O)NCc1nnc2n1CCC2)N1CCN(C(=O)c2ccc(C[C@@H]3CC[C@H]([C@H](O)c4ccccc4)N3)cc2)CC1 (some centres unmarked) [Example 466] is 100 to 999 nM

Reported EC50 of CC(C(=O)N1C(C)CCC1C)N1CCN(C(=O)c2ccc(C[C@@H]3CC[C@H]([C@H](O)c4ccccc4)N3)cc2)CC1 (some centres unmarked) [Example 479] : 10 to 99.9 nM

The measured EC50 associated with COC1CN(C(=O)C(C)N2CCN(C(=O)c3ccc(C[C@@H]4CC[C@H]([C@H](O)c5ccccc5)N4)cc3)CC2)C1 (some centres unmarked) [Example 473] reads 10 to 99.9 nM

Reported EC50 of CC(C(=O)NCC(=O)N1CCCC1)N1CCN(C(=O)c2ccc(C[C@@H]3CC[C@H]([C@H](O)c4ccccc4)N3)cc2)CC1 (some centres unmarked) [Example 460] : 10 to 99.9 nM

Quick note, EC50 for CC(C(=O)N1CCc2ccc(Cl)cc2C1)N1CCN(C(=O)c2ccc(C[C@@H]3CC[C@H]([C@H](O)c4ccccc4)N3)cc2)CC1 (some centres unmarked) [Example 510] landed at 1 to 9.9 nM

Record CC(C(=O)N1C[C@H](F)[C@@H](F)C1)N1CCN(C(=O)c2ccc(C[C@@H]3CC[C@H]([C@H](O)c4ccccc4)N3)cc2)CC1 (some centres unmarked) [Example 476] , field EC50: 10 to 99.9 nM

The molecule CC(C(=O)NCC1CC1)N1CCN(C(=O)c2ccc(C[C@@H]3CC[C@H]([C@H](O)c4ccccc4)N3)cc2)CC1 (some centres unmarked) [Example 447] showed EC50 equal to 10 to 99.9 nM
